From: the supplement of paper PMC12042874

- test.summary: amyloid nucleation score (Sup35N fusion, yeast selection) (log enrichment); library NNK3; higher = more nucleation; inactive = no reads after selection;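 note: zero at mode of non-aggregating sequences after 7 days selection at 30°C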
assay.endpoint: amyloid nucleation score

               substance            assay_endpoint    result
 0   KYCRRVYSSAETLYVLTHI  amyloid nucleation score  inactive
 1  KSMSLKTFCGWGETQYVFFV  amyloid nucleation score  inactive
 2  IVTTQHMNGRSDYWITYSSV  amyloid nucleation score    -0.447
 3             HSWNFGVCG  amyloid nucleation score     0.229
 4                IHCYCS  amyloid nucleation score  inactive
 5              FSVRIKYI  amyloid nucleation score  inactive
 6  MSTVRHVRWRQGQGKMRGRK  amyloid nucleation score  inactive
 7    VFDPGLSNCWRVTGWNED  amyloid nucleation score  inactive
 8         WYMCLGSLMSIVF  amyloid nucleation score  inactive
 9                YQGKLI  amyloid nucleation score  inactive
10  SLFLLFLWYGINDTYLVYFV  amyloid nucleation score  inactive
11                YLVSDE  amyloid nucleation score  inactive
12  DIVGHIKSLMFLVLEDTSSP  amyloid nucleation score  inactive
13  TQGFLNKAGNVLSVIMDRIR  amyloid nucleation score  inactive
14  VAFGWDLFFNVLNLHCNVSN  amyloid nucleation score      1.89
15  YRNSICHNREKAWHGSNKNR  amyloid nucleation score  inactive
16  KLEREMADNDVARGGQLVLG  amyloid nucleation score  inactive
17          VGGQWGAYAAKA  amyloid nucleation score  inactive

----------
Quick list: amyloid nucleation score per entry.
- test.summary: amyloid nucleation score (Sup35N fusion, yeast selection) (log enrichment); library NNK2; higher = more nucleation; inactive = no reads after selection
assay.endpoint: amyloid nucleation score

>>> print(df.to_string())
         input_sequence  numeric_result
0  GALMMMVEGSESVNKVHFVY           -1.05
1  PVCCFAHMIIHYNCLGQKAY            2.08
2          HLLRKDVPQAWT            3.29
3  RQTGRLDFRTISRVKVDVIV            1.92
4  EFWPIITTSRRDMISNLDQG          -0.593
5    MYKGLISLNCVTSGTRSG           -1.07
6  QRSAKLRALPEGIKHKKWLM          -0.108

----------
- test.summary: amyloid nucleation score (Sup35N fusion, yeast selection) (log enrichment); library NNK2; higher = more nucleation; inactive = no reads after selection
# if value of amyloid nucleation score reaches 0.1, tag met; if it stays below, tag not met

               substance    class
 0           IMWYFIINWHP      met
 1  CCIRSLWLNLVLTNASGPSL      met
 2  MFMSQIPYQCGVKSNSVISK  not met
 3                HNYAVS  not met
 4  RADALIVTVARFTPPALVKV      met
 5            VRISAMVITV  not met
 6               NYDRTIW  not met
 7      FFSRFERPLQCNIFKL      met
 8      DDFNERSSLHVVYDRF  not met
 9  NRVGSIPIGPVFTADVAIVL      met
10  LGVNYAMNVTSGSQTFMRDG  not met
11  CVKRRWPEVIRVHVGGYSFN      met
12     LLSFLMRSRRFLSTVKY  not met
13             NHSVTWLPD      met
14  SKQTITFRSVQEDSWRRFGH      met
15  SASLSTRVNNTPLPALTRWV      met
16              FCLTVLVV      met
17  YAIICKPLDDPLRKGTRWRR      met
18  NSKTDSVHYYIDVLSPTHIF  not met
19  NTLYSFVRGCKPRMEFNRVK  not met
20          PSWDDFSSPEVS  not met
21    FDGRETQENGNSYMCEGW      met
22  STSRFTMQQRRKLYKSFCWR  not met
23               FRSHCWL      met
24  IYYDVFSVSCTFVKLGWIFL      met
25                EENGCS      met
26          IGVQVFPRMHVG      met
27  IDDARRYCRQNRFTVSMGNC  not met
28  HKETSFDGHFAICWCYTCRH      met
29              SRNSLLRS  not met
30               VFTSFVG      met
31  GSIYTCCGAGRKQNVGPKYL      met
32  WHCVRVIQRSWCVKEGSKGC      met
33  GRRMIRAERTIRLIIHVRSL      met
34             LFLCYFIRT      met
35  VVRHLWMTKYCRFMFISTVY  not met
36  DGVSVPSCRLKRKAVIAGWL      met
37               QSLHRGR  not met
38  VWLTKIIGPVRKLVKNTLGC      met
39         LMLNWCTLGLVHC  not met
40              WCEGHKSW  not met
41  GWPHKVEFKVNDIFMIFSMM      met
42  PWACIIYRLQGSPLINSRFN      met
43  FHINAFISTWFSDNFCFCDY      met
44  AYMSITSSLYNCTRRPTGTC  not met
45     DLRIREMDLGNWSWASR      met
46  MESINSVSSSNIVHRFRRGV      met
47               CFSNFVG      met
48  RYNESEVSISRETRNVVLTF      met
49  DGTGYGTSKLTWWRDFLKRC  not met
50  GRWVNCKTVVLFSSDRRQAR      met
51       LALMFLYAALFHAAR      met
52  IYSEWLSLVYSLGAPVTLNS  not met
53  AHEYEPNFFRLCYKVRLWNA  not met
54   FMARRNVAYILEYIIVYRF  not met
55  DTVALCNWLMRLESFSFAGQ      met
56          AYYLFYTRGEFR      met
57  CIFFPRGSNFFLFQMCGLSF      met
58     EYCACTFDWWGYQGCCD  not met
59  GNGLVMLKTVHLWVLRDVLG      met
60  CSSFKSLIRLGTLNRRNRNE      met
61  HYAVTYLLGYSVGRVLYLWK  not met
62          RRAGNIVLECSG      met
63  VNLWCRYDWGVPGDSWGRDG      met
64  LRLFFNYWSNWGATEKNYIL  not met

----------
- test.summary: amyloid nucleation score (Sup35N fusion, yeast selection) (log enrichment); library NNK1; higher = more nucleation; inactive = no reads after selection
assay.endpoint: amyloid nucleation score

               substance  numeric_result
 0  SIDVSDSSRDGYSDMWSKCK          -0.164
 1         IIRFTTFPCFNVR             2.1
 2   WIYRFPHKMHVIEDVRSVN           0.894
 3  IFCITGAGLLDRCSSRTLAS          -0.175
 4  RMLFSYPCESISSHLILCEV          -0.181
 5      LSSRHVAGYQEYLNDL           -0.88
 6              SVASRACW           0.139
 7              WVAINPCV           0.464
 8   TAVVENCLPIWVVYSSKMY           0.018
 9           LNCCRMGGVLS            0.11
10               PLNHNSY            1.47
11  MVGCTYVCLADLFCKLLLMS          -0.015
12  GCTRNCSKCKGMHSQRHPYP          -0.837
13        LVMFSNLCSWFLLF           0.966
14  EKVGLTCQRGIVLVDNIFMQ            6.99
15     QSFFHCVLYAIPHVRLS           -1.07
16       PFVLYWGKLSYYDAD           0.707
17                NVANVV          -0.013
18           VCNFLFAFSFW            6.75
19  WGYNRLNDDELLIMSKFLRQ               1
20     NLGFTRSPHAETSLFTH           0.235
21                CWGFYL          -0.976
22  KCMEIILVLRVVRKWGSGGM           0.654
23       ENITPPLYNDDYRYQ           0.305
24  ILIAIMNFARSEVVTNGHIR            2.13
25  ACHRTWKWVLRLRLLMRNNL          -0.712
26  GITIITFIDGSLLGRDFPCW            2.14
27        LVVCAVVGSDLLWL           0.848
28       MTWNNWCSMRLACIS             3.9
29              HVWRDGSE            1.82
30  AVRWLHIGWSKETGRNCDCR           0.671
31  NSKRTGASLRIELRLQFRKR          -0.215
32  DTGLGVCWSAKLGYCVWGSL            6.61
33  GMAVNGYHSLRGKVLEDVGN          -0.289
